Where do these numbers come from? They come from patent US8063088B2.

Form: system (human LXR beta (Homo sapiens)), quantity (IC50), values below.
ENDPOINT: IC50

CC(C)N1C(=O)N(S(=O)(=O)c2ccccc2)CC1c1cccc(-c2cc(F)ccc2F)c1 (centres unmarked) [Example 32] : 99.5 nM
COc1ccc(F)cc1-c1cccc(C2CN(S(=O)(=O)c3ccccc3)C(=O)N2C(C)C)c1 (centres unmarked) [Example 27] : 3800 nM
CC(C)N1C(=O)N(S(=O)(=O)c2ccccc2)CC1c1cccc(-c2cncc(S(C)(=O)=O)c2)c1 (centres unmarked) [Example 23] : 25 nM
NCc1cccc(-c2cccc([C@@H]3CN(S(=O)(=O)c4ccccc4)CC[C@H]3c3ccccc3)c2)c1 (relative stereo) [Example 37] : 2090 nM
CS(=O)(=O)c1cccc(-c2cccc(C3CN(S(=O)(=O)c4ccccc4)CCN3c3ccccc3)c2)c1 (centres unmarked) [Example 34] : 2 nM
O=C(O)c1cccc(-c2ccc(C3CN(S(=O)(=O)c4ccccc4)C(=O)N3c3ccccc3)cc2)c1 (centres unmarked) [Example 2] : 8050 nM
Cc1ccc(C)c(-c2cccc([C@@H]3CN(C(=O)OC(C)(C)C)CC[C@@H]3c3ccccc3)c2)c1 (relative stereo) [Example 41] : 36800 nM
Cc1cccc(-c2cccc([C@@H]3CN(C(=O)OC(C)(C)C)CC[C@H]3c3ccccc3)c2)c1 (relative stereo) [Example 44] : 5510 nM
CC(C)(C)OC(=O)N1CC[C@@H](c2ccccc2)[C@H](c2cccc(-c3cncc(S(C)(=O)=O)c3)c2)C1 (relative stereo) [Example 43] : 755 nM
O=C(O)c1ccc(-c2cccc(C3CN(S(=O)(=O)c4ccccc4)C(=O)N3c3ccccc3)c2)cc1 (centres unmarked) [Example 5] : 5420 nM
Cc1ccccc1N1CCN(C(=O)OC(C)(C)C)CC1c1cccc(-c2cccc(S(C)(=O)=O)c2)c1 (centres unmarked) [Example 48] : 355 nM
Cc1ccc(Cl)cc1-c1cccc(C2CN(S(=O)(=O)c3ccccc3)C(=O)N2C(C)C)c1 (centres unmarked) [Example 26] : 315 nM
CC(C)N1C(=O)N(S(=O)(=O)c2ccccc2)CC1c1cccc(-c2cccc(S(N)(=O)=O)c2)c1 (centres unmarked) [Example 24] : 1 nM
CS(=O)(=O)c1cccc(-c2cccc([C@@H]3CN(S(=O)(=O)c4ccccc4)CC[C@H]3c3ccccc3)c2)c1 (racemic) [Example 36] : 25 nM

###

# STUDY_SYSTEM: human LXR alpha (Homo sapiens, UniProt Q13133)
# Sequence (Q13133 164-447): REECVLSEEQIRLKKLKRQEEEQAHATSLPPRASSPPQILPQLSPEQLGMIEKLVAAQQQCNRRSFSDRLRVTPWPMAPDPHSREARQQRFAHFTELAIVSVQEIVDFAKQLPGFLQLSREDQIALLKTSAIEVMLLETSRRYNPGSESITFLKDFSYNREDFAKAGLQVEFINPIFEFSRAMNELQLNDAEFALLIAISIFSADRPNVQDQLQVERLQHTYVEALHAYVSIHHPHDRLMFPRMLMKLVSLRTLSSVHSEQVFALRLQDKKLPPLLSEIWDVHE
pIC50: −log10 of the molar value.
Recorded pIC50 by entry
ENDPOINT: pIC50

CC(C)N1C(=O)N(S(=O)(=O)c2ccccc2)CC1c1cccc(-c2cc(C#N)ccc2Cl)c1 (centres unmarked) [Example 28] : 5.53
Cc1ccccc1N1CCN(C(=O)OC(C)(C)C)CC1c1cccc(-c2cncc(S(C)(=O)=O)c2)c1 (centres unmarked) [Example 49] : 5.05
CS(=O)(=O)Nc1cccc(-c2ccc(C3CN(S(=O)(=O)c4ccccc4)C(=O)N3c3ccccc3)cc2)c1 (centres unmarked) [Example 9] : 6.37
Cc1ccc(F)cc1-c1cccc(C2CN(S(=O)(=O)c3ccccc3)C(=O)N2C(C)C)c1 (centres unmarked) [Example 22] : 5.33
CC(C)N1C(=O)N(S(=O)(=O)c2ccccc2)CC1c1cccc(-c2cc(F)ccc2Cl)c1 (centres unmarked) [Example 25] : 5.69
CC(C)N1C(=O)N(S(C)(=O)=O)CC1c1cccc(-c2cccc(S(C)(=O)=O)c2)c1 (centres unmarked) [Example 17] : 4.28
COc1ccc(F)cc1-c1cccc(C2CN(S(=O)(=O)c3ccccc3)C(=O)N2C(C)C)c1 (centres unmarked) [Example 27] : 5.21
CC(C)N1C(=O)N(S(=O)(=O)c2ccccc2)CC1c1cccc(-c2cccc(S(N)(=O)=O)c2)c1 (centres unmarked) [Example 24] : 7.32

###

# STUDY_SYSTEM: human LXR alpha (Homo sapiens)
# Sequence (Q13133 164-447): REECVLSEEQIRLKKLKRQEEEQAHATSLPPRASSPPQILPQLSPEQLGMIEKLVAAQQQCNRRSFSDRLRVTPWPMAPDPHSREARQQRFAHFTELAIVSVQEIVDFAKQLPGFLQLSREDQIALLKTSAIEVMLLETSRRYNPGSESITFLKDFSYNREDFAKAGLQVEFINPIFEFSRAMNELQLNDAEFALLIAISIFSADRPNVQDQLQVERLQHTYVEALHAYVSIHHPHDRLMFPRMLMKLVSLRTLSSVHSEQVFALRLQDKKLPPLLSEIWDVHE
pIC50: −log10 of the molar value.
pIC50 listing for selected molecules.
ENDPOINT: pIC50

CS(=O)(=O)c1cc(-c2cccc(C3CN(S(=O)(=O)c4ccccc4)C(=O)N3c3ccccc3)c2)ccc1CO (centres unmarked) : 6.32
O=C(O)c1cccc(-c2ccc(C3CN(S(=O)(=O)c4ccccc4)C(=O)N3c3ccccc3)cc2)c1 (centres unmarked) : 5.10
O=C(O)CCc1ccc(-c2cccc(C3CN(S(=O)(=O)c4ccccc4)C(=O)N3c3ccccc3)c2)cc1 (centres unmarked) : 5.47
Cc1oncc1S(=O)(=O)N1CC(c2cccc(-c3cccc(S(C)(=O)=O)c3)c2)N(C(C)C)C1=O (centres unmarked) : 5.59
CC(C)(C)OC(=O)N1C[C@H](c2cccc(-c3cncc(S(C)(=O)=O)c3)c2)[C@H](c2ccccc2)CC1=O (relative stereo) : 5.09
CC(C)N1C(=O)N(S(=O)(=O)c2ccccc2)CC1c1cccc(-c2cccc(S(=O)(=O)NC(C)(C)C)c2)c1 (centres unmarked) : 5.65
NCc1cccc(-c2cccc(C3CN(S(=O)(=O)c4ccccc4)CCN3c3ccccc3)c2)c1 (centres unmarked) : 5.58
CC(C)N1C(=O)N(S(=O)(=O)c2ccccc2)CC1c1cccc(-c2cccc([N+](=O)[O-])c2)c1 (centres unmarked) : 5.54
Cc1ccc(C)c(-c2cccc(C3CN(C(=O)OC(C)(C)C)CCC3c3ccccc3)c2)c1 (centres unmarked) : 4.36
CS(=O)(=O)c1cccc(-c2cccc(C3CN(S(=O)(=O)c4ccccc4)CC(=O)N3c3ccccc3)c2)c1 (centres unmarked) : 4.28
CS(=O)(=O)c1cccc(-c2cccc(C3CN(S(=O)(=O)c4ccccc4)CCN3c3ccccc3)c2)c1 (centres unmarked) : 7.25
CC(C)N1C(=O)N(S(=O)(=O)c2ccccc2F)CC1c1cccc(-c2cccc(S(C)(=O)=O)c2)c1 (centres unmarked) : 8.00
Cc1ccc(C)c(-c2cccc([C@@H]3CN(C(=O)OC(C)(C)C)CC[C@@H]3c3ccccc3)c2)c1 (relative stereo) : 4.56
CS(=O)(=O)c1cccc(-c2cccc(C3CN(S(=O)(=O)c4ccccc4)C(=O)N3c3ccccc3)c2)c1 (centres unmarked) : 7.05
CCOc1ccc(F)c(-c2cccc(C3CN(S(=O)(=O)c4ccccc4)C(=O)N3C(C)C)c2)c1 (centres unmarked) : 7.02
NCc1cccc(-c2cccc([C@@H]3CN(S(=O)(=O)c4ccccc4)CC[C@H]3c3ccccc3)c2)c1 (relative stereo) : 5.60
Cc1ccccc1N1CCN(S(=O)(=O)c2ccccc2)CC1c1cccc(-c2cccc(S(C)(=O)=O)c2)c1 (centres unmarked) : 4.91

###

A collection of compounds and their measured IC50
# STUDY_SYSTEM: human LXR beta (Homo sapiens)
# Sequence (P55055 155-460): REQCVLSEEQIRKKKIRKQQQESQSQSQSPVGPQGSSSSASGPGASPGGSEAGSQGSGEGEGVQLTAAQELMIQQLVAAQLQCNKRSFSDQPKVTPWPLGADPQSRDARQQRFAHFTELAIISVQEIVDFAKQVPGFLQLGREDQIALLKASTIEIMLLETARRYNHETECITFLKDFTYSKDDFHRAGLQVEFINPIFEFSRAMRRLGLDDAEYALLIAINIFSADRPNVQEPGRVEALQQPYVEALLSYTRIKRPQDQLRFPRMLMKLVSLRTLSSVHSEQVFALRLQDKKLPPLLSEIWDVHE
ENDPOINT: IC50 (nM)

CS(=O)(=O)c1cccc(-c2cccc(C3CN(S(=O)(=O)c4ccccc4)C(=O)N3c3ccccc3)c2)c1 (stereo not drawn) : 4
CS(=O)(=O)Nc1cccc(-c2cccc(C3CN(S(=O)(=O)c4ccccc4)C(=O)N3c3ccccc3)c2)c1 (stereo not drawn) : 74.5
Cc1ccc(F)cc1-c1cccc(C2CN(S(=O)(=O)c3ccccc3)C(=O)N2C(C)C)c1 (stereo not drawn) : 1360
O=C(O)c1cccc(-c2cccc(C3CN(S(=O)(=O)c4ccccc4)C(=O)N3c3ccccc3)c2)c1 (stereo not drawn) : 9030
Cc1ccccc1N1CCN(C(=O)OC(C)(C)C)CC1c1cccc(-c2cncc(S(C)(=O)=O)c2)c1 (stereo not drawn) : 3750
O=C(O)c1ccc(-c2ccc(C3CN(S(=O)(=O)c4ccccc4)C(=O)N3c3ccccc3)cc2)cc1 (stereo not drawn) : 2880
CS(=O)(=O)c1cc(-c2ccc(C3CN(S(=O)(=O)c4ccccc4)C(=O)N3c3ccccc3)cc2)ccc1CO (stereo not drawn) : 18
CC(C)N1C(=O)N(S(=O)(=O)c2ccccc2)CC1c1cccc(-c2cc(F)ccc2Cl)c1 (stereo not drawn) : 265
CC(C)N1C(=O)N(S(=O)(=O)c2ccccc2)CC1c1cccc(-c2cccc(S(C)(=O)=O)c2)c1 (stereo not drawn) : 24.3
